# testDescription: Pharmacokinetic profiles in male SD rats (IV and PO)
# Type: in vivo, rat
# conditionContext: rat, plasma, IV 1 mg/kg, PO 5 mg/kg, route for this parameter not given
Parameter clearance: see the listing below.
Answer format: numeric, mL/min/kg implied, no suffix.

>>> print(df.to_string())
                          structurenotation  valueobserved
0  C[C@H](Nc1nc(=O)n(C2CCOCC2)c(=O)[nH]1)c1ccc(Cl)c(Cl)c1           1.67
1  C[C@H](Nc1nc(=O)n(C2CCOCC2)c(=O)[nH]1)c1ccc(F)cc1Cl           4.17
2  C[C@H](Nc1nc(=O)n(C2CCOCC2)c(=O)[nH]1)c1ccc(F)cc1F           9.17
3  Cc1cccc([C@H](C)Nc2nc(=O)n(C3CCOCC3)c(=O)[nH]2)c1            5.5
4  Cc1ccc([C@H](C)Nc2nc(=O)n(C3CCOCC3)c(=O)[nH]2)c(C)c1           1.33

// clearance value for C[C@H](Nc1nc(=O)n(C2CCOCC2)c(=O)[nH]1)c1cc(F)cc(Cl)c1 : 2.5

// clearance value for Cc1cc([C@H](C)Nc2nc(=O)n(C3CCOCC3)c(=O)[nH]2)ccc1F : 3.17

// clearance value for C[C@H](Nc1nc(=O)n(C2CCOCC2)c(=O)[nH]1)c1cccc(C(F)(F)F)c1 : 3.5

* * *

# studyTarget: bovine cardiac myosin (Bos taurus (Bovine), UniProt Q9BE39)
# Sequence (Q9BE39 whole entry): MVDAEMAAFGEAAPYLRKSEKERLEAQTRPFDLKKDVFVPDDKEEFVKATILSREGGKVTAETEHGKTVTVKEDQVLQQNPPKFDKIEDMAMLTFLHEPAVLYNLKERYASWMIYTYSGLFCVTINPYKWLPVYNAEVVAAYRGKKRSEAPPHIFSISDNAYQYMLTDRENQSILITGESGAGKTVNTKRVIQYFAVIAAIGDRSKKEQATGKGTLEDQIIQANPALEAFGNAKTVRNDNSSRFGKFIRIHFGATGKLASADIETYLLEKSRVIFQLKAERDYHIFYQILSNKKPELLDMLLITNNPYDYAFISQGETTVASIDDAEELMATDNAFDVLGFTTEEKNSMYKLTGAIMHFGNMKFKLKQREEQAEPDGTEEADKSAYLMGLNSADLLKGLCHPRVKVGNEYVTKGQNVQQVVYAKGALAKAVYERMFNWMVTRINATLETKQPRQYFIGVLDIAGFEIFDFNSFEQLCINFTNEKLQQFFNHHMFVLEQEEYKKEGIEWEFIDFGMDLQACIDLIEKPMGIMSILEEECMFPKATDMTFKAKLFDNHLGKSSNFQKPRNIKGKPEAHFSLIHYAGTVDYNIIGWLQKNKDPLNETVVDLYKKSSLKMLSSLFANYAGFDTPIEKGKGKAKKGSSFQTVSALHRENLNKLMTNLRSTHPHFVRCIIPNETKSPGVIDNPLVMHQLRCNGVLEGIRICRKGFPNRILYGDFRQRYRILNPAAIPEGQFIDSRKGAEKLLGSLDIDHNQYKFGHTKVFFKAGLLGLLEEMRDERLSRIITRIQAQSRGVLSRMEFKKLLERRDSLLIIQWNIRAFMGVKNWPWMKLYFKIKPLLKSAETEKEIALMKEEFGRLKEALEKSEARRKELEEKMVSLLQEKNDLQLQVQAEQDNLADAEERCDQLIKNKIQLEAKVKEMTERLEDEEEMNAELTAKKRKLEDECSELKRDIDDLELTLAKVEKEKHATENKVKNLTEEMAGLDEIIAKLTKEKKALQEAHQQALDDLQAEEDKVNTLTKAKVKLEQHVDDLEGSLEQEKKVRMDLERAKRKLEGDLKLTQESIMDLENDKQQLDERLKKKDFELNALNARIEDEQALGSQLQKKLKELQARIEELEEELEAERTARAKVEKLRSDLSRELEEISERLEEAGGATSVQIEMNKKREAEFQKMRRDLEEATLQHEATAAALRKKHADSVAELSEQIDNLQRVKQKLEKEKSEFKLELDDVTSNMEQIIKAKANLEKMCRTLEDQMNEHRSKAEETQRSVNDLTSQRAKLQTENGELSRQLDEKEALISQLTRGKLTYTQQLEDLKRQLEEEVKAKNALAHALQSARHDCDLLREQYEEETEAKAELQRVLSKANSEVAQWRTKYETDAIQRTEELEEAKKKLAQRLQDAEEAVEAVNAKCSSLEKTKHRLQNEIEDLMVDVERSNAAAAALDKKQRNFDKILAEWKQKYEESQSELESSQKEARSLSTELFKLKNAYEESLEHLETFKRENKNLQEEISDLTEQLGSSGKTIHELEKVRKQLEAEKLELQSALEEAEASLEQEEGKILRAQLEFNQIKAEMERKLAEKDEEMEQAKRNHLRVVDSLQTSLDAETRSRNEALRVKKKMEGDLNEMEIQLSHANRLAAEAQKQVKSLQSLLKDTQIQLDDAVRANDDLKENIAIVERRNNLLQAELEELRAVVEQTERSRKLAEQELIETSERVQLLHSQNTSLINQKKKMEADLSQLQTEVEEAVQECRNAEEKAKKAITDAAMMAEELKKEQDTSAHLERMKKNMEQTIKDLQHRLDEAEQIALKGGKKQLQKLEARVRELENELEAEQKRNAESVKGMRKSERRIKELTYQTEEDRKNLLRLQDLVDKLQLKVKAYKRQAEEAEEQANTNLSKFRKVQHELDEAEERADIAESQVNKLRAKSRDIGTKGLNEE
# Sequence (P85100 whole entry partner): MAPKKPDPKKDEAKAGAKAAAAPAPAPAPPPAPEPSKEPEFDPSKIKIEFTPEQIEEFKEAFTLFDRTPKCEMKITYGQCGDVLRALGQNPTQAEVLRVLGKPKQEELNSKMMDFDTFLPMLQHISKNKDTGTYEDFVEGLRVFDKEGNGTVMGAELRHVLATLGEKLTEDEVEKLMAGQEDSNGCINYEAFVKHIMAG
# Sequence (Q3SZE5 whole entry partner): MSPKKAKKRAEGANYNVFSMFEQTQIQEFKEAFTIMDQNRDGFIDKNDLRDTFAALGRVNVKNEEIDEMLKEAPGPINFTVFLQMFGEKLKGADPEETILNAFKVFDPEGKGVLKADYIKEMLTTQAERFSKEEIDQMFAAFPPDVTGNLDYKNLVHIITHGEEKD
# testDescription: Myosin inhibitory potency: PK/LDH-coupled ATPase assay on bovine skinned cardiac myofibrils
# conditionContext: pCa=6.25, 50 μM ATP, 25° C., read-out: myosin inhibition activity IC50
measureName: IC50

A selection of reference data follows.
                                   compound                               studytarget  valueobserved
0  Cc1c(-c2cccc([C@H](C)Nc3nc(=O)n(C4CCOCC4)c(=O)[nH]3)c2)cnn1C  bovine cardiac myosin (Bos taurus (Bovine), UniProt Q9BE39)        2040 nM
1  CC(Nc1nc(=O)n(C2CCOCC2)c(=O)[nH]1)c1ccc2c(c1)OCO2 (stereo not shown)  bovine cardiac myosin (Bos taurus (Bovine), UniProt Q9BE39)        1880 nM
2  C[C@H](Nc1nc(=O)n(C2CCOCC2)c(=O)[nH]1)c1cccc([C@@H](C)O)c1  bovine cardiac myosin (Bos taurus (Bovine), UniProt Q9BE39)         240 nM
3  C[C@H](Nc1nc(=O)n([C@H](C)C(F)(F)F)c(=O)[nH]1)c1ccc(OC(F)(F)F)cc1  bovine cardiac myosin (Bos taurus (Bovine), UniProt Q9BE39)        2820 nM
4  CC(C)[C@@H](O)c1cccc([C@H](C)Nc2nc(=O)n(C3CCOCC3)c(=O)[nH]2)c1  bovine cardiac myosin (Bos taurus (Bovine), UniProt Q9BE39)         540 nM

// IC50 value for C[C@H](Nc1nc(=O)n(C2CCOCC2)c(=O)[nH]1)c1cccc(C2=CCCCC2)c1 : 1110 nM

// IC50 value for O=c1nc(N[C@H](c2cccc(C3CN(CC(F)(F)F)C3)c2)C(F)F)[nH]c(=O)n1C1CCOCC1 : 450 nM

// IC50 value for C[C@H](Nc1nc(=O)n(C2CCOCC2)c(=O)[nH]1)c1cccc(-n2cncn2)c1 : 4850 nM

// IC50 value for Cc1ccccc1-c1cccc([C@H](C)Nc2nc(=O)n(C3CCOCC3)c(=O)[nH]2)c1 : 820 nM

// IC50 value for Cc1cccc([C@H](C)Nc2nc(=O)n(C3CCN(S(C)(=O)=O)CC3)c(=O)[nH]2)c1 : 1230 nM

// IC50 value for CO[C@H]1COCC[C@@H]1n1c(=O)nc(N[C@@H](C)c2cc(C)ccc2F)[nH]c1=O : 900 nM

// IC50 value for Cc1nccn1-c1cccc(C(C)Nc2nc(=O)n(C3CCOCC3)c(=O)[nH]2)c1 (stereo not shown) : 3380 nM

// IC50 value for C[C@H](Nc1nc(=O)n(C2CCOCC2)c(=O)[nH]1)c1ccc(OC(F)(F)F)cc1 : 1210 nM
